Test: Ratio of IC50(presence of NaCl) to that of IC50(absence of NaCl)
Hi there, I'd appreciate the recorded Ratio for every entry that follows.
Number only, please.

State its Ratio: C=C1CC2(CCC3(O)[C@H]4Cc5ccc(O)c6c5[C@@]3(CCN4C)C2O6)OC1=O (stereo in doubt; 4b)
7.6

State its Ratio: C=C1CC2(CCC3(O)[C@H]4Cc5ccc(O)c6c5[C@@]3(CCN4CC3CC3)C2O6)OC1=O (stereo in doubt; 4a)
0.8

State its Ratio: C=C1CC2(CCC3(O)[C@H]4Cc5ccc(O)c6c5[C@@]3(CCN4C)C2O6)OC1=O (stereo in doubt; 5b)
7.1

State its Ratio: C=C1CC2(CCC3(O)[C@H]4Cc5ccc(O)c6c5[C@@]3(CCN4CC3CC3)C2O6)OC1=O (stereo in doubt; 5a)
0.4
